# Test system: acute myeloid leukemia cell line MOLM14
# PROTOCOL_DESCRIPTION: Cancer cell growth, Cell Titer-Glo cell viability assay, 72 hours
# Assay type: cell-based
# DETAILS: Homo sapiens; MOLM-14, 72 hours
METRIC_NAME: log10 of GI50 (log10 of the value in nM)
Note: values are log10 of GI50 expressed in nM.

# COMPOUND, METRIC_NAME, QUANTITATIVE_READOUT
records = [
    ("COC[C@@H](C)N[C@H]1CC[C@H](Nc2cc(-c3csc(NCC4CCOCC4)n3)c(Cl)cn2)CC1", "log10 of GI50", 2.04),
    ("COC[C@@H](C)N[C@H]1CC[C@H](Nc2cc(-c3csc(NCC4(C#N)CCOCC4)n3)c(Cl)cn2)CC1", "log10 of GI50", 1.40),
    ("COCCN[C@H]1CC[C@H](Nc2cc(-c3csc(NCC4(C#N)CCOCC4)n3)c(Cl)cn2)CC1", "log10 of GI50", 0.04),
    ("COCCN[C@H]1CC[C@H](Nc2cc(-c3csc(NCC4CC4)n3)c(Cl)cn2)CC1", "log10 of GI50", 2.52),
    ("O=C(Nc1cc(-c2csc(NCC3CCOCC3)n2)c(Cl)cn1)c1ccc(F)cc1", "log10 of GI50", 2.72),
]

Summary for this compound, COCCN[C@H]1CC[C@H](Nc2cc(-c3csc(OCC4CCOCC4)n3)c(Cl)cn2)CC1 : log10 of GI50 is 2.79

Summary for this compound, CCc1cnn2c(NCc3ccc[n+]([O-])c3)cc(N3CCCC[C@H]3CCO)nc12 [Dinaciclib, reference compound] : log10 of GI50 is 0.65

###

# key: entry, value: GI50
# Tested on: acute myeloid leukemia cell line HL-60
# PROTOCOL_DESCRIPTION: Cancer cell growth, Cell Titer-Glo cell viability assay, 72 hours
# Format: cell-based
# DETAILS: Homo sapiens; HL-60, 72 hours
Your answer is read as nM, so omit the unit and give the number.

# MOLECULE, TARGET_SYSTEM, UNIT_TEXT, QUANTITATIVE_READOUT
measured = [
    ("COCCN[C@H]1CC[C@H](Nc2cc(-c3csc(NCC4CC4)n3)c(Cl)cn2)CC1 [Compound 13]", "acute myeloid leukemia cell line HL-60", "nM", 320),
]

Summary for this molecule, COCCN[C@H]1CC[C@H](Nc2cc(-c3csc(NCc4ccc(F)cc4)n3)c(Cl)cn2)CC1 [Compound 12] : GI50 is 190

Summary for this molecule, COC[C@@H](C)N[C@H]1CC[C@H](Nc2cc(-c3csc(NCC4(C#N)CCOCC4)n3)c(Cl)cn2)CC1 [Compound 1] : GI50 is 32

Summary for this molecule, CNc1nc(-c2cc(N[C@H]3CC[C@H](NCCOC)CC3)ncc2Cl)cs1 [Compound 9] : GI50 is 420

Summary for this molecule, COCCN[C@H]1CC[C@H](Nc2cc(-c3csc(NCC4CCOCC4)n3)ccn2)CC1 [Compound 18] : GI50 is 980

###

# System: acute myeloid leukemia cell line MV4-11
# PROTOCOL_DESCRIPTION: Cancer cell growth, Cell Titer-Glo cell viability assay, 72 hours
# Format: cell-based
# DETAILS: Homo sapiens; MV4-11, 72 hours
# key: entry, value: GI50
Your answer is read as nM, so omit the unit and give the number.

Solved cases below.
# SAMPLE_SMILES, GI50 [nM]
data = [
    ("COCCN[C@H]1CC[C@H](Nc2cc(-c3csc(NCc4ccccc4)n3)c(Cl)cn2)CC1", 330),
    ("N[C@H]1CC[C@H](Nc2cc(-c3csc(NCC4CCOCC4)n3)c(Cl)cn2)CC1", 140),
    ("COCCN[C@H]1CC[C@H](Nc2cc(-c3csc(NCC4CCCCC4)n3)c(Cl)cn2)CC1", 1100),
    ("CNc1nc(-c2cc(N[C@H]3CC[C@H](NCCOC)CC3)ncc2Cl)cs1", 530),
]

Summary for this compound, COC[C@H](C)N[C@H]1CC[C@H](Nc2cc(-c3csc(NCC4CCOCC4)n3)c(Cl)cn2)CC1 : GI50 is 440

###

# Tested on: hamster ovary cell CHO
METRIC_NAME: GI50 (nM)
Your answer is read as nM, so omit the unit and give the number.

# SAMPLE_SMILES, GI50 (nM)
records = [
    ("COC[C@@H](C)N[C@H]1CC[C@H](Nc2cc(-c3csc(NCC4CCOCC4)n3)c(Cl)cn2)CC1", 400),
    ("CNc1nc(-c2cc(N[C@H]3CC[C@H](NCCOC)CC3)ncc2Cl)cs1", 1200),
    ("COCCN[C@H]1CC[C@H](Nc2cc(-c3csc(SCC4CCOCC4)n3)c(Cl)cn2)CC1", 610),
    ("O=C(Nc1cc(-c2csc(NCC3CCOCC3)n2)c(Cl)cn1)c1ccc(F)cc1", 1600),
    ("COCCN[C@H]1CC[C@H](Nc2cc(-c3csc(OCC4CCOCC4)n3)c(Cl)cn2)CC1", 1300),
]

Summary for this molecule, COCCN[C@H]1CC[C@H](Nc2cc(-c3csc(NCC4CC4)n3)c(Cl)cn2)CC1 : GI50 is 770

###

# Tested on: acute myelocytic leukemia (AML) OCI-AML-3
# PROTOCOL_DESCRIPTION: Cancer cell growth, Cell Titer-Glo cell viability assay, 72 hours
# Format: cell-based
# DETAILS: Homo sapiens, OCI-AML-3; OCI-AML3, 72 hours
# key: entry, value: GI50
Your answer is read as nM, so omit the unit and give the number.

Solved cases below.
# COMPOUND, UNIT_TEXT, QUANTITATIVE_READOUT
rows = [
    ("O=C(Nc1cc(-c2csc(NCC3CCOCC3)n2)c(Cl)cn1)c1ccc(F)cc1 [Compound 8]", "nM", 720),
    ("COCCN[C@H]1CC[C@H](Nc2cc(-c3csc(NCC4(C#N)CCOCC4)n3)c(Cl)cn2)CC1 [Compound 14]", "nM", 12),
]

Summary for this compound, COCCN[C@H]1CC[C@H](Nc2cc(-c3csc(NCC4CC4)n3)c(Cl)cn2)CC1 [Compound 13] : GI50 is 420

Summary for this compound, COCCN[C@H]1CC[C@H](Nc2cc(-c3csc(NCc4ccccc4)n3)c(Cl)cn2)CC1 [Compound 11] : GI50 is 220

###

# Tested on: acute myeloid leukemia cell line MOLM14
# PROTOCOL_DESCRIPTION: Cancer cell growth, Cell Titer-Glo cell viability assay, 72 hours
# Type: cell-based
# DETAILS: Homo sapiens; MOLM-14, 72 hours
# key: entry, value: GI50
Your answer is read as nM, so omit the unit and give the number.

Solved cases below.
# SAMPLE_SMILES, METRIC_NAME, QUANTITATIVE_READOUT
measured = [
    ("COCCN[C@H]1CC[C@H](Nc2cc(-c3csc(NCc4ccccc4)n3)c(Cl)cn2)CC1", "GI50", 160),
    ("COCCN[C@H]1CC[C@H](Nc2cc(-c3csc(NCC4CCCCC4)n3)c(Cl)cn2)CC1", "GI50", 330),
    ("N[C@H]1CC[C@H](Nc2cc(-c3csc(NCC4CCOCC4)n3)c(Cl)cn2)CC1", "GI50", 140),
    ("COCCN[C@H]1CC[C@H](Nc2cc(-c3csc(NCC4CCOCC4)n3)ccn2)CC1", "GI50", 1200),
    ("COC[C@H](C)N[C@H]1CC[C@H](Nc2cc(-c3csc(NCC4CCOCC4)n3)c(Cl)cn2)CC1", "GI50", 490),
]

Summary for this compound, CNc1nc(-c2cc(N[C@H]3CC[C@H](NCCOC)CC3)ncc2Cl)cs1 : GI50 is 680

Summary for this compound, COCCN[C@H]1CC[C@H](Nc2cc(-c3csc(NCc4ccc(F)cc4)n3)c(Cl)cn2)CC1 : GI50 is 310
